Reported Ki by item:
Target: GABA A receptor a1b3g2 (hα1) (Homo sapiens, UniProt P14867+P18507)
Construct: expressed in transfected cells; host or cells: HEK293 (transient transfection), membranes
Assay: [3H]flumazenil competition binding, GABA A a1b3g2 receptors in HEK293 cells
Protocol: Membrane Preparation and Binding Assay The affinity of compounds at GABA A receptor subtypes was measured by competition for [3H]flumazenil (85 Ci/mmol; Roche) binding to HEK293 cells expressing rat (stably transfected) or human (transiently transfected) receptors of composition a1b3g2, a2b3g2, a3b3g2 and a5b3g2. […]
Report as a plain number; the unit nM is understood.

- CHEMICAL_STRING: "C#Cc1ncn2c1Cn1ncnc1-c1cc(Br)ccc1-2"
  TARGET_OR_TEST_SYSTEM: "GABA A receptor a1b3g2 (hα1) (Homo sapiens, UniProt P14867+P18507)"
  DISPLAY_UNIT: "nM"
  Ki: 20.3

Could you share which Ki value was measured for `CCCc1ncn2c1Cn1ncnc1-c1cc(Br)ccc1-2` ? 10.6

Could you share which Ki value was measured for `Cc1ncn2c1Cn1ncnc1-c1cc(F)ccc1-2` ? 18.2

Could you share which Ki value was measured for `C/C=C/c1ncn2c1Cn1ncnc1-c1cc(Cl)ccc1-2` ? 5.2

###

Reported Ki by item:
target: GABA A receptor a3b3g2 (hα3) (Homo sapiens, UniProt P18507+P34903); construct: expressed in transfected cells; host or cells: HEK293 (transient transfection), membranes; experiment: [3H]flumazenil competition binding, GABA A a3b3g2 receptors in HEK293 cells; conditions: [3H]flumazenil 1 nM; HEK293 membranes, human transiently transfected; mean of two determinations; read-out: Ki[nM] hα3
Report as a plain number; the unit nM is understood.

- CHEMICAL_STRING: "Cc1ncn2c1Cn1ncnc1-c1cc(I)ccc1-2"
  TARGET_OR_TEST_SYSTEM: "GABA A receptor a3b3g2 (hα3) (Homo sapiens, UniProt P18507+P34903)"
  RESULT_TYPE: "Ki"
  ENDPOINT_VALUE: 126

Would you kindly look at the next entry?
What Ki appears in the records for this compound with GABA A receptor a3b3g2 (hα3) (Homo sapiens, UniProt P18507+P34903)? `Cc1ncn2c1Cn1ncnc1-c1cc(Cl)ccc1-2` 265

###

Molecular target: GABA A receptor a3b3g2 (hα3) (Homo sapiens, UniProt P18507+P34903)
Construct: expressed in transfected cells; host or cells: HEK293 (transient transfection), membranes
Experiment: [3H]flumazenil competition binding, GABA A a3b3g2 receptors in HEK293 cells
Method: Membrane Preparation and Binding Assay The affinity of compounds at GABA A receptor subtypes was measured by competition for [3H]flumazenil (85 Ci/mmol; Roche) binding to HEK293 cells expressing rat (stably transfected) or human (transiently transfected) receptors of composition a1b3g2, a2b3g2, a3b3g2 and a5b3g2. […]
Reported Ki by item:
Report as a plain number; the unit nM is understood.

- COMPOUND: "CCCc1ncn2c1Cn1ncnc1-c1cc(Cl)ccc1-2 [Example 12]"
  TARGET_OR_TEST_SYSTEM: "GABA A receptor a3b3g2 (hα3) (Homo sapiens, UniProt P18507+P34903)"
  Ki, nM: 5.6
- COMPOUND: "CCc1ncn2c1Cn1ncnc1-c1cc(OC)ccc1-2 [Example 11]"
  TARGET_OR_TEST_SYSTEM: "GABA A receptor a3b3g2 (hα3) (Homo sapiens, UniProt P18507+P34903)"
  Ki, nM: 39.1
- COMPOUND: "C#Cc1ncn2c1Cn1ncnc1-c1cc(Br)ccc1-2 [Example 27]"
  TARGET_OR_TEST_SYSTEM: "GABA A receptor a3b3g2 (hα3) (Homo sapiens, UniProt P18507+P34903)"
  Ki, nM: 11.9
- COMPOUND: "C/C=C/c1ncn2c1Cn1ncnc1-c1cc(Cl)ccc1-2 [Example 21]"
  TARGET_OR_TEST_SYSTEM: "GABA A receptor a3b3g2 (hα3) (Homo sapiens, UniProt P18507+P34903)"
  Ki, nM: 4.8
- COMPOUND: "CCc1ncn2c1Cn1ncnc1-c1cc(F)ccc1-2 [Example 9]"
  TARGET_OR_TEST_SYSTEM: "GABA A receptor a3b3g2 (hα3) (Homo sapiens, UniProt P18507+P34903)"
  Ki, nM: 1.3

Could you share which Ki value was measured for Cc1ncn2c1Cn1ncnc1-c1ccccc1-2 [Example 1] ? 10.1

Could you share which Ki value was measured for Cc1ncn2c1Cn1ncnc1-c1c(F)cccc1-2 [Example 57] ? 6.3

###

target: GABA A receptor a1b3g2 (hα1) (Homo sapiens, UniProt P14867+P18507); construct: expressed in transfected cells; host or cells: HEK293 (transient transfection), membranes; experiment: [3H]flumazenil competition binding, GABA A a1b3g2 receptors in HEK293 cells; settings: [3H]flumazenil 1 nM; HEK293 membranes, human transiently transfected; mean of two determinations; read-out: Ki[nM] hα1
RESULT_TYPE: Ki
Field note: include the unit after the figure.

Could you share which Ki value was measured for Cc1ncn2c1Cn1ncnc1-c1cc(I)ccc1-2 [Example 53] ? 184 nM

###

Reported log10 Ki by item:
molecular target: GABA A receptor a2b3g2 (hα2) (Homo sapiens, UniProt P18507+P47869); construct: expressed in transfected cells; host or cells: HEK293 (transient transfection), membranes; test: [3H]flumazenil competition binding, GABA A a2b3g2 receptors in HEK293 cells
# values: log10(Ki), units nM

Example cases with answers are listed next.
- CHEMICAL_STRING: "C=Cc1ncn2c1Cn1ncnc1-c1cc(F)ccc1-2"
  log10 Ki: 0.77
- CHEMICAL_STRING: "Cc1ncn2c1Cn1ncnc1-c1cc(F)ccc1-2"
  log10 Ki: 0.96
- CHEMICAL_STRING: "Cc1ncn2c1Cn1ncnc1-c1c(F)cccc1-2"
  log10 Ki: 1.11

Would you kindly look at the next entry?
Could you share which log10 Ki value was measured for `CCc1ncn2c1Cn1ncnc1-c1cc(OC)ccc1-2` ? 1.93

###

Molecular target: GABA A receptor a1b3g2 (hα1) (Homo sapiens, UniProt P14867+P18507)
Construct: expressed in transfected cells; host or cells: HEK293 (transient transfection), membranes
Assay: [3H]flumazenil competition binding, GABA A a1b3g2 receptors in HEK293 cells
Procedure: Membrane Preparation and Binding Assay The affinity of compounds at GABA A receptor subtypes was measured by competition for [3H]flumazenil (85 Ci/mmol; Roche) binding to HEK293 cells expressing rat (stably transfected) or human (transiently transfected) receptors of composition a1b3g2, a2b3g2, a3b3g2 and a5b3g2. […]
Class membership depends on Ki alone; the intervals are L (below 0.008 µM), M (0.008 µM to below 0.02 µM), H (0.02 µM or more)

Would you please look over these solved cases?
- COMPOUND: "CCc1ncn2c1Cn1ncnc1-c1cc(Cl)ccc1-2 [Example 10]"
  CLASS_LABEL: "M"
- COMPOUND: "C#Cc1ncn2c1Cn1ncnc1-c1cc(Cl)ccc1-2 [Example 26]"
  CLASS_LABEL: "L"

Lab note: which band did Fc1ccc2c(c1)-c1ncnn1Cc1c(C#Cc3cccc(C(F)(F)F)c3)ncn1-2 [Example 33] land in? L

Lab note: which band did C=Cc1ncn2c1Cn1ncnc1-c1ccccc1-2 [Example 18] land in? M

Lab note: which band did Clc1ccc2c(c1)-c1ncnn1Cc1c(/C=C/C3CC3)ncn1-2 [Example 23] land in? H

Lab note: which band did C=Cc1ncn2c1Cn1ncnc1-c1cc(Cl)ccc1-2 [Example 20] land in? H

Lab note: which band did Cc1ncn2c1Cn1ncnc1-c1c(F)cccc1-2 [Example 57] land in? L

Lab note: which band did Clc1ccc2c(c1)-c1ncnn1Cc1c(C#Cc3ccccc3)ncn1-2 [Example 30] land in? M

Lab note: which band did CC(C)(O)C#Cc1ncn2c1Cn1ncnc1-c1cc(Cl)ccc1-2 [Example 28] land in? H

###

molecular target: GABA A receptor a2b3g2 (hα2) (Homo sapiens, UniProt P18507+P47869); construct: expressed in transfected cells; host or cells: HEK293 (transient transfection), membranes; assay: [3H]flumazenil competition binding, GABA A a2b3g2 receptors in HEK293 cells; conditions: [3H]flumazenil 1 nM; HEK293 membranes, human transiently transfected; mean of two determinations; read-out: Ki[nM] hα2
RESULT_TYPE: Ki
Field note: include the unit after the figure.

- CHEMICAL_STRING: "Cc1ncn2c1Cn1ncnc1-c1cc(I)ccc1-2"
  ENDPOINT_VALUE: "261 nM"

Could you share which Ki value was measured for `Cc1ncn2c1Cn1ncnc1-c1cc(Cl)ccc1-2` ? 219 nM
